# target_or_test_system: Sigma-2 receptor (TMEM97) (Rattus norvegicus)
# assay_info: Binding affinity towards Sigma receptor site 2 in rat brain using [3H]DTG as radioligand
measure: IC50

Fc1ccc(-n2cc(CCCCN3CCC4(CC3)COc3ccccc34)c3ccccc32)cc1 12 nM
Fc1ccc(-n2cc(CCCCN3CCC4(CC3)Oc3ccccc3O4)c3ccccc32)cc1 270 nM
Fc1ccc(-n2cc(CCCCN3CCC4(CC3)OCCc3ccccc34)c3ccccc32)cc1 0.9 nM
c1ccc2c(c1)COC21CCN(CCCOC2CCCCC2)CC1 0.07 nM
Fc1ccc(-n2cc(CCCCN3CCC4(CC3)COc3ccccc3C4)c3ccccc32)cc1 250 nM

Please look at the items below and tell me IC50 for each one, in order.
1. Fc1ccc(-n2cc(CCCCN3CCC4(CC3)OCc3c(F)cccc34)c3ccccc32)cc1
2. Fc1ccc(-n2cc(CCCCN3CCC4(CC3)Cc3ccccc3CO4)c3ccccc32)cc1
3. Fc1ccc(-n2cc(CCCCN3CCC4(CC3)SCc3ccccc34)c3ccccc32)cc1
4. Fc1ccc(-n2cc(CCCCN3CCC4(CC3)OCc3cccc(F)c34)c3ccccc32)cc1
5. Fc1ccc(-n2cc(CCCCN3CCC4(CC3)COCc3ccccc34)c3ccccc32)cc1
6. Fc1ccc(-n2cc(CCCCN3CCC4(CC3)OCc3c(C(F)(F)F)cccc34)c3ccccc32)cc1
7. Fc1ccc(-n2cc(CCCCN3CCC4(CC3)Cc3ccccc3O4)c3ccccc32)cc1
8. c1ccc(CCN2CCC3(CC2)OCc2ccccc23)cc1

## Output
["1.8 nM", "1.1 nM", "0.14 nM", "0.58 nM", "0.34 nM", "2.6 nM", "340 nM", "2.9 nM"]

Please look at the items below and tell me IC50 for each one, in order.
1. c1ccc2c(c1)COC21CCN(CCCCC2CCCCC2)CC1
2. Fc1ccc(-n2cc(CCCCN3CCC4(CCOc5ccccc54)CC3)c3ccccc32)cc1

## Output
1: 0.07 nM; 2: 3 nM
